All figures here come from ChEMBL document CHEMBL1151855.

subjectOfTest: Adenosine receptor A2a (Homo sapiens)
Sequence (P29274 whole entry): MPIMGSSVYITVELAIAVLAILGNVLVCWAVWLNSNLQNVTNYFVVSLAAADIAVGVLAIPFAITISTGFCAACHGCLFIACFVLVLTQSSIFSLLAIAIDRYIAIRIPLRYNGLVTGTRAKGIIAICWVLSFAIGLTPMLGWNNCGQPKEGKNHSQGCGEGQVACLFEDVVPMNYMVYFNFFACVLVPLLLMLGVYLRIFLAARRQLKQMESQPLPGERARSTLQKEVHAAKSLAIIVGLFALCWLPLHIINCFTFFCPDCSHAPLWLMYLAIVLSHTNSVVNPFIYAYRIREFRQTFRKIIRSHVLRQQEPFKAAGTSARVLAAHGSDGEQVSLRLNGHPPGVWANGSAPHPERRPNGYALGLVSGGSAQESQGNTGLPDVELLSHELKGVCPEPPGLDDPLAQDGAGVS
Threshold 500 nM. Ki below it: Fulfilled. Ki at it or above: Not fulfilled.

Ask | Strictly below 500 nM in Ki? CCSCCn1c(=O)c2[nH]c(-c3ccco3)nc2n(CCCOC)c1=O
Reply | Not fulfilled

Ask | Strictly below 500 nM in Ki? CCn1c(=O)c2[nH]c(-c3ccc(OCC(=O)Nc4cccnc4)cc3)nc2n(CCCOC)c1=O
Reply | Not fulfilled

Ask | Strictly below 500 nM in Ki? CCn1c(=O)c2[nH]c(-c3cccs3)nc2n(CCCOC)c1=O
Reply | Fulfilled

Ask | Strictly below 500 nM in Ki? CCn1c(=O)c2[nH]c(-c3ccc(OCC(=O)N4CCc5ccccc5C4)cc3)nc2n(CCCOC)c1=O
Reply | Fulfilled

Ask | Strictly below 500 nM in Ki? CCn1c(=O)c2[nH]c(-c3ccc(OCC(=O)Nc4ccccn4)cc3)nc2n(CCCOC)c1=O
Reply | Fulfilled

Ask | Strictly below 500 nM in Ki? CCn1c(=O)c2[nH]c(-c3ccc(OCC(=O)NC4CCCC4)cc3)nc2n(CCCOC)c1=O
Reply | Fulfilled
